Assay: Solubility of corticosteroids in neat solvents, measured gravimetrically
Type: physicochemical
Conditions: ratio of Table 1 solubilities
Experimental: The solubilities of various corticosteroids in propylene glycol (PG) monocaprylate, PG monolaurate, or isopropyl myristate were measured gravimetrically. Corticosteroid, PG monocaprylate, PG monolaurate, and/or isopropyl myristate were placed in glass vials and weighed on an analytical balance to four decimals places. Test solutions were stirred and shaken at room temperature for up to 30 minutes. Test solutions were examined at about 24 hours for clarity or non-dissolved material.
endpoint_label: times more soluble in PG monocaprylate than in isopropyl myristate

Before answering, review these 3 worked examples.
# compound, assay_value
measured = [
    ("CCC(=O)O[C@]1(C(=O)CCl)[C@@H](C)C[C@H]2[C@@H]3CCC4=CC(=O)C=C[C@]4(C)[C@@]3(F)[C@@H](O)C[C@@]21C [Clobetasol Propionate]", "16 times"),
    ("CCC(=O)OCC(=O)[C@@]1(OC(=O)CC)[C@@H](C)C[C@H]2[C@@H]3CCC4=CC(=O)C=C[C@]4(C)[C@@]3(F)[C@@H](O)C[C@@]21C [Betamethasone Dipropionate]", "27 times"),
    ("CCC(=O)O[C@]1(C(=O)SCF)[C@H](C)C[C@H]2[C@@H]3C[C@H](F)C4=CC(=O)C=C[C@]4(C)[C@@]3(F)[C@@H](O)C[C@@]21C [Fluticasone Propionate]", "10 times"),
]

Continue with the compound presented below.
stdin: # get_value(readout='times more soluble in PG monocaprylate than in isopropyl myristate', item= CCCC(=O)O[C@]1(C(=O)CO)CC[C@H]2[C@@H]3CCC4=CC(=O)CC[C@]4(C)[C@H]3[C@@H](O)C[C@@]21C [Hydrocortisone Butyrate] )
stdout: 20 times
